Quick reference: pIC50 of the listed items.
Molecular target: PDK1 enzyme (Homo sapiens)
Sequence (O15530 1-556): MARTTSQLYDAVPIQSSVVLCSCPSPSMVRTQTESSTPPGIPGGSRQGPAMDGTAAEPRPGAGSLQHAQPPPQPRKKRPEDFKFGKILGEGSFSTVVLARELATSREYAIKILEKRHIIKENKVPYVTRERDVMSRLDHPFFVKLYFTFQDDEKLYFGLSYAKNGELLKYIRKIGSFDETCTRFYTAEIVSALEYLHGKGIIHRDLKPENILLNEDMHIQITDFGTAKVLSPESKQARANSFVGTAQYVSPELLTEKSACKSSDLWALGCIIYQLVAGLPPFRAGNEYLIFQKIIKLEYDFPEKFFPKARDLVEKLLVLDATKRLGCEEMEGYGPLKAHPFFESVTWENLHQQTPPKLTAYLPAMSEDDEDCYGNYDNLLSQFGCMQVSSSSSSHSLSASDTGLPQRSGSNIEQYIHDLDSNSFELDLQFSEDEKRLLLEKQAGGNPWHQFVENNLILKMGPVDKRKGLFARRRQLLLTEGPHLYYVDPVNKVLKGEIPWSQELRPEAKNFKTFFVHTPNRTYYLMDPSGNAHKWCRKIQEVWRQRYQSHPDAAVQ
Assay: PDK1 kinase inhibition assay (33P phosphorylation of synthetic peptide, filter plate)
Type: biochemical
Conditions: 0.01 mM ATP, 60 min at 30° C.; read-out: PDK1 IC50
pIC50: −log10 of the molar value.
quantity: pIC50

* CC(C)c1cnn2c(Nc3ccc(S(=O)(=O)N(C)C)cc3)cc(CN3CCC(O)CC3)nc12 | < 3.70
* O=S(=O)(Nc1ccccn1)c1ccc(Nc2cc(Cl)nc3ccnn23)cc1 | < 3.70
* CC(C)c1cnn2c(Nc3ccc(S(=O)(=O)N(C)C)cc3)cc(N3CCC(CN(C)C)CC3)nc12 | < 3.70
